molecular target: Vasopressin V1a receptor (Homo sapiens); note: assay procedure not described here
Sequence (P37288 whole entry): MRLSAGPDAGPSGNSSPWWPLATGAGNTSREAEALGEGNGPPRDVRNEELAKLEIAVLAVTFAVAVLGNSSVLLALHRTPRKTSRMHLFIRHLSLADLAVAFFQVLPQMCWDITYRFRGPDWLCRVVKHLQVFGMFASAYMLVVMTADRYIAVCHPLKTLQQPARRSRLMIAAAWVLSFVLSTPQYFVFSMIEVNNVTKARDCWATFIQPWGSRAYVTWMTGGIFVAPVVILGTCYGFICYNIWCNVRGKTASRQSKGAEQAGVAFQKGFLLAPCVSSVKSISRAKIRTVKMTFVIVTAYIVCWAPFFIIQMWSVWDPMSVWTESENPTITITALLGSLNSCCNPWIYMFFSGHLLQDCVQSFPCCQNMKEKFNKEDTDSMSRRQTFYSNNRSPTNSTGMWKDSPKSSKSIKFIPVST
observed property: AC50

# compound, observed measurement
data = [
    ("O=C1CN(/N=C/c2ccc(-c3ccc([N+](=O)[O-])cc3)o2)C(O)=N1 [DANTROLENE]", "> 10 µM"),
    ("CN1CCN(C2=Nc3ccccc3Oc3ccc(Cl)cc32)CC1 [LOXAPINE]", "> 10 µM"),
    ("CN1C(C(=O)Nc2ccccn2)=C(O)c2ccccc2S1(=O)=O [PIROXICAM]", "> 10 µM"),
    ("Oc1ccc2c(c1)[C@@]13CCCC[C@@]1(O)[C@@H](C2)N(CC1CCC1)CC3 [BUTORPHANOL]", "> 30 µM"),
    ("Cc1cnc(C(=O)NCCc2ccc(S(=O)(=O)NC(=O)NC3CCCCC3)cc2)cn1 [GLIPIZIDE]", "> 10 µM"),
    ("O=C1CN=C(c2ccccn2)c2cc(Br)ccc2N1 [BROMAZEPAM]", "> 10 µM"),
    ("CCC(C)C(CC)C(N)=O (configuration not stated) [VALNOCTAMIDE]", "> 30 µM"),
    ("Cn1c(=O)cc(N2CCC[C@@H](N)C2)n(Cc2ccccc2C#N)c1=O [ALOGLIPTIN]", "> 10 µM"),
    ("Cc1onc(-c2ccccc2)c1-c1ccc(S(N)(=O)=O)cc1 [VALDECOXIB]", "> 30 µM"),
    ("CCCCCC(=O)O[C@]1(C(C)=O)CC[C@H]2[C@@H]3CCC4=CC(=O)CC[C@]4(C)[C@H]3CC[C@@]21C [HYDROXYPROGESTERONE CAPROATE]", "> 30 µM"),
    ("CCOC(=O)O[C@]1(C(=O)OCCl)CC[C@H]2[C@@H]3CCC4=CC(=O)C=C[C@]4(C)[C@H]3[C@@H](O)C[C@@]21C [LOTEPREDNOL ETABONATE]", "> 30 µM"),
    ("CCCN[C@H]1CCc2nc(N)sc2C1 [PRAMIPEXOLE]", "> 30 µM"),
    ("Cc1cc(C(C)(C)C)cc(C)c1CC1=NCCN1 [XYLOMETAZOLINE]", "> 30 µM"),
    ("CNCc1ccc(-c2[nH]c3cc(F)cc4c3c2CCNC4=O)cc1 [RUCAPARIB]", "> 30 µM"),
    ("CC1=C(C)C(=O)C(C(CCCCCC(=O)O)c2ccccc2)=C(C)C1=O (configuration not stated) [SERATRODAST]", "> 30 µM"),
    ("CCCN(CCC)C(=O)Cc1c(-c2ccc(Cl)cc2)nc2ccc(Cl)cn12 [ALPIDEM]", "> 30 µM"),
    ("Nc1ncn([C@H]2C[C@H](O)[C@@H](CO)O2)c(=O)n1 [DECITABINE]", "> 30 µM"),
    ("C[C@@H](NCCCc1cccc(C(F)(F)F)c1)c1cccc2ccccc12", "> 30 µM"),
    ("CN(C)CCc1c[nH]c2ccc(Cn3cncn3)cc12 [RIZATRIPTAN]", "> 10 µM"),
    ("CC(=O)[C@@]1(O)CC[C@H]2[C@@H]3C=C(Cl)C4=CC(=O)[C@@H]5C[C@@H]5[C@]4(C)[C@H]3CC[C@@]21C [CYPROTERONE]", "> 10 µM"),
    ("COCC1=C(C(=O)O)N2C(=O)[C@@H](NC(=O)/C(=N\\OC)c3csc(N)n3)[C@H]2SC1 [CEFPODOXIME]", "> 30 µM"),
    ("CO[C@H]1/C=C/O[C@@]2(C)Oc3c(C)c(O)c4c(O)c(c(/C=N/N5CCN(C)CC5)c(O)c4c3C2=O)NC(=O)/C(C)=C\\C=C\\[C@H](C)[C@H](O)[C@@H](C)[C@@H](O)[C@@H](C)[C@H](OC(C)=O)[C@@H]1C [RIFAMPIN]", "26.7 µM"),
]
